Target: UniProt P33032
Sequence (P33032 whole entry): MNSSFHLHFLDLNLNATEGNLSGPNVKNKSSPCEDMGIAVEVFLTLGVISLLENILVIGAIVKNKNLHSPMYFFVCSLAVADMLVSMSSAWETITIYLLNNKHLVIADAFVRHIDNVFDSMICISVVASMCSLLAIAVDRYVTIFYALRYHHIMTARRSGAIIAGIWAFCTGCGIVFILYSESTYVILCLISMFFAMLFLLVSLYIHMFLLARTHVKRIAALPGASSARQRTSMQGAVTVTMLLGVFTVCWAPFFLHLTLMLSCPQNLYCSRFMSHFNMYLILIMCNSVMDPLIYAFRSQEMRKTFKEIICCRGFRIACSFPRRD
Experiment: Agonist activity against human melanocortin receptor hMC5R measured as percent cAMP accumulation at the concentration of 50 uM
Format: functional
Observation Type: Accumulation (%)

Examples from the recorded data:
1. CCCCC(=O)NC1(C(=O)N[C@H](Cc2ccccc2)C(=O)N[C@@H](CCCN=C(N)N)C(=O)N[C@@H](Cc2c[nH]c3ccccc23)C(=O)NCC(N)=O)CCc2c(Br)cccc2C1 (single isomer, unassigned; isomer 2) : 32
2. CCCCC(=O)NC1(C(=O)N[C@H](Cc2ccccc2)C(=O)N[C@@H](CCCN=C(N)N)C(=O)N[C@@H](Cc2c[nH]c3ccccc23)C(=O)NCC(N)=O)CCc2c(cccc2N(C)C)C1 (single isomer, unassigned; isomer 1) : 0
3. CCCC(=O)N[C@@H](Cc1c[nH]cn1)C(=O)N[C@H](Cc1ccccc1)C(=O)N[C@@H](CCCN=C(N)N)C(=O)N[C@@H](Cc1c[nH]c2ccccc12)C(=O)NCC(N)=O : 0

1. CCCCC(=O)NC1(C(=O)NC(Cc2ccccc2)C(=O)N[C@@H](CCCN=C(N)N)C(=O)N[C@@H](Cc2c[nH]c3ccccc23)C(=O)NCC(N)=O)CCc2c(Br)cccc2C1 (single isomer, unassigned)
2. CCCCC(=O)NC1(C(=O)N[C@H](Cc2ccccc2)C(=O)N[C@@H](CCCN=C(N)N)C(=O)N[C@@H](Cc2c[nH]c3ccccc23)C(=O)NCC(N)=O)CCc2c(cccc2N(C)C)C1 (single isomer, unassigned; isomer 2)
Request: Hi! Which is lower in terms of Accumulation, the first one 1 or the second one 2 ? Your choice should be expressed through its label.
Response: 1

###

Target: Melanocortin receptor 4 (Homo sapiens, UniProt P32245)
Sequence (P32245 whole entry): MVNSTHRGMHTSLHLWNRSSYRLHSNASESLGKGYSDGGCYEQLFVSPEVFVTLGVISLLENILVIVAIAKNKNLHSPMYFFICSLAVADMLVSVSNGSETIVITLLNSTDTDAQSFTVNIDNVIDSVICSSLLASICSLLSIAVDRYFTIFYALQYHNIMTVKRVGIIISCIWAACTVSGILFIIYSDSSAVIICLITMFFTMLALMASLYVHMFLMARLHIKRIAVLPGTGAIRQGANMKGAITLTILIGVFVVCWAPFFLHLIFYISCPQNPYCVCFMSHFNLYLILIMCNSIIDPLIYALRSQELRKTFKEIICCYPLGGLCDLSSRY
Assay: Agonist activity against human melanocortin receptor hMC4R
Observation Type: EC50 (nM)

a. CCCCC(=O)NC1(C(=O)N[C@H](Cc2ccccc2)C(=O)N[C@@H](CCCNC(=N)N)C(=O)N[C@@H](Cc2c[nH]c3ccccc23)C(=O)NCC(N)=O)CCc2c(cccc2N(C)C)C1 (single isomer, unassigned; isomer 1)
b. CCCCC(=O)NC1(C(=O)NC(Cc2ccccc2)C(=O)N[C@@H](CCCNC(=N)N)C(=O)N[C@@H](Cc2c[nH]c3ccccc23)C(=O)NCC(N)=O)CCc2c(cccc2C(C)C)C1 (single isomer, unassigned)
c. CCCCC(=O)NC1(C(=O)NC(Cc2ccccc2)C(=O)N[C@@H](CCCN=C(N)N)C(=O)N[C@@H](Cc2c[nH]c3ccccc23)C(=O)NCC(N)=O)CCc2c(Br)cccc2C1 (single isomer, unassigned)
d. CCCCC(=O)N[C@]1(C(=O)N[C@H](Cc2ccccc2)C(=O)N[C@@H](CCCN=C(N)N)C(=O)N[C@@H](Cc2c[nH]c3ccccc23)C(=O)NCC(N)=O)CCc2ccccc2C1 (stereo in doubt; form 2)
e. CCCC(=O)N[C@@H](Cc1cnc[nH]1)C(=O)N[C@H](Cc1ccccc1)C(=O)N[C@@H](CCCNC(=N)N)C(=O)N[C@@H](Cc1c[nH]c2ccccc12)C(=O)NCC(N)=O
Request: Arrange the 5 compounds by rising EC50, starting with the smallest. Write the labels in rank order as requested.
Response: a, b, e, c, d

I. CCCCC(=O)NC1(C(=O)N[C@H](Cc2ccccc2)C(=O)N[C@@H](CCCNC(=N)N)C(=O)N[C@@H](Cc2c[nH]c3ccccc23)C(=O)NCC(N)=O)CCc2c(cccc2N(C)C)C1 (single isomer, unassigned; isomer 2)
II. CCCCC(=O)NC1(C(=O)NC(Cc2ccccc2)C(=O)N[C@@H](CCCNC(=N)N)C(=O)N[C@@H](Cc2c[nH]c3ccccc23)C(=O)NCC(N)=O)CCc2c(CC)cccc2C1 (single isomer, unassigned)
III. CCCCC(=O)NC1(C(=O)N[C@H](Cc2ccccc2)C(=O)N[C@@H](CCCNC(=N)N)C(=O)N[C@@H](Cc2c[nH]c3ccccc23)C(=O)NCC(N)=O)CCc2c(Br)cccc2C1 (single isomer, unassigned; isomer 2)
IV. CCCCC(=O)NC1(C(=O)NC(Cc2ccccc2)C(=O)N[C@@H](CCCNC(=N)N)C(=O)N[C@@H](Cc2c[nH]c3ccccc23)C(=O)NCC(N)=O)CCc2c(cccc2OCC)C1 (single isomer, unassigned)
V. CCCC(=O)N[C@@H](C)C(=O)NC(Cc1ccccc1)C(=O)N[C@@H](CCCN=C(N)N)C(=O)N[C@@H](Cc1c[nH]c2ccccc12)C(=O)NCC(N)=O (single isomer, unassigned)
Request: Ascending by EC50, please. Lab note: final answer is the ordered label list.
Response: I, II, III, IV, V

1. CCCCC(=O)NC1(C(=O)NC(Cc2ccccc2)C(=O)N[C@@H](CCCNC(=N)N)C(=O)N[C@@H](Cc2c[nH]c3ccccc23)C(=O)NCC(N)=O)CCc2c(cccc2OC)C1 (single isomer, unassigned)
2. CCCCC(=O)NC1(C(=O)NC(Cc2ccccc2)C(=O)N[C@@H](CCCNC(=N)N)C(=O)N[C@@H](Cc2c[nH]c3ccccc23)C(=O)NCC(N)=O)CCc2c(Cl)cccc2C1 (single isomer, unassigned)
3. CCCCC(=O)NC1(C(=O)NC(Cc2ccccc2)C(=O)N[C@@H](CCCNC(=N)N)C(=O)N[C@@H](Cc2c[nH]c3ccccc23)C(=O)NCC(N)=O)CCc2c(cccc2OC(C)C)C1 (single isomer, unassigned)
4. CCCCC(=O)N[C@]1(C(=O)N[C@H](Cc2ccccc2)C(=O)N[C@@H](CCCN=C(N)N)C(=O)N[C@@H](Cc2c[nH]c3ccccc23)C(=O)NCC(N)=O)CCc2ccccc2C1 (stereo in doubt; form 1)
Request: List by increasing EC50. // format: requested-order list of labels
Response: 4, 1, 3, 2
(4: 45 nM, 1: 90 nM, 3: 130 nM, 2: 600 nM)

a. CCCCC(=O)NC1(C(=O)N[C@H](Cc2ccccc2)C(=O)N[C@@H](CCCNC(=N)N)C(=O)N[C@@H](Cc2c[nH]c3ccccc23)C(=O)NCC(N)=O)CCc2c(Cl)cccc2C1 (single isomer, unassigned; isomer 2)
b. CCCC(=O)N[C@@]1(C(=O)N[C@H](Cc2ccccc2)C(=O)N[C@@H](CCCN=C(N)N)C(=O)N[C@@H](Cc2c[nH]c3ccccc23)C(=O)NCC(N)=O)CCc2ccccc2C1 (stereo in doubt; form 1)
Request: Which value of EC50 is greater, the one for a or the one for b ? Identify your pick by its label.
Response: b
(b: 290 nM, a: 130 nM)

1. CCCC(=O)N[C@@]1(C(=O)N[C@H](Cc2ccccc2)C(=O)N[C@@H](CCCN=C(N)N)C(=O)N[C@@H](Cc2c[nH]c3ccccc23)C(=O)NCC(N)=O)CCc2ccccc2C1 (stereo in doubt; form 2)
2. CCCCC(=O)NC1(C(=O)NC(Cc2ccccc2)C(=O)N[C@@H](CCCNC(=N)N)C(=O)N[C@@H](Cc2c[nH]c3ccccc23)C(=O)NCC(N)=O)CCc2c(C)cccc2C1 (single isomer, unassigned)
Request: Please indicate which entry, 1 or 2 , has the lower recorded EC50 value. Refer to your chosen entry by its label in the reply.
Response: 2

###

Biological target: Melanocyte-stimulating hormone receptor (Homo sapiens)
Sequence (Q01726 whole entry): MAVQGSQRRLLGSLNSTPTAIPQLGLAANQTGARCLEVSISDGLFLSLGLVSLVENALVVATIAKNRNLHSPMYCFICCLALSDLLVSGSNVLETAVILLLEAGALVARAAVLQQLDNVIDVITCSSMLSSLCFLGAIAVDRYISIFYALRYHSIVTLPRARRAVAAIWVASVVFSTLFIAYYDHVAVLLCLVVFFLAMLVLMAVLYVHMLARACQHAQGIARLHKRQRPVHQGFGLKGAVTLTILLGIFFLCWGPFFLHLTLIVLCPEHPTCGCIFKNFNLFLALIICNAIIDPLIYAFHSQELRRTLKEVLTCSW
Experiment: Agonist activity against human melanocortin receptor hMC1R
Format: functional
pEC50: −log10 of the molar value.
Observation Type: pEC50

Check out these entries, answers already filled in.
1. CCCCC(=O)NC1(C(=O)NC(Cc2ccccc2)C(=O)N[C@@H](CCCN=C(N)N)C(=O)N[C@@H](Cc2c[nH]c3ccccc23)C(=O)NCC(N)=O)CCc2cc(Br)ccc2C1 (single isomer, unassigned; form 1) : 5.47
2. CCCCC(=O)NC1(C(=O)N[C@H](Cc2ccccc2)C(=O)N[C@@H](CCCNC(=N)N)C(=O)N[C@@H](Cc2c[nH]c3ccccc23)C(=O)NCC(N)=O)CCc2c(Cl)cccc2C1 (single isomer, unassigned; isomer 2) : 6.05

P. CCCCC(=O)NC1(C(=O)N[C@H](Cc2ccccc2)C(=O)N[C@@H](CCCN=C(N)N)C(=O)N[C@@H](Cc2c[nH]c3ccccc23)C(=O)NCC(N)=O)CCc2cccc(Br)c2C1 (single isomer, unassigned; isomer 2)
Q. CCCC(=O)N[C@@]1(C(=O)N[C@H](Cc2ccccc2)C(=O)N[C@@H](CCCN=C(N)N)C(=O)N[C@@H](Cc2c[nH]c3ccccc23)C(=O)NCC(N)=O)CCc2ccccc2C1 (stereo in doubt; form 2)
Request: Between the two listed entries P and Q , which has its pEC50 at the higher number? Let me know the label of the one you choose.
Response: P

1. CCCCC(=O)N[C@]1(C(=O)N[C@H](Cc2ccccc2)C(=O)N[C@@H](CCCN=C(N)N)C(=O)N[C@@H](Cc2c[nH]c3ccccc23)C(=O)NCC(N)=O)CCc2ccccc2C1 (stereo in doubt; form 2)
2. CCCCC(=O)NC1(C(=O)NC(Cc2ccccc2)C(=O)N[C@@H](CCCNC(=N)N)C(=O)N[C@@H](Cc2c[nH]c3ccccc23)C(=O)NCC(N)=O)CCc2c(cccc2OC(C)C)C1 (single isomer, unassigned)
Request: Which gives the smaller pEC50 number: 1 or 2 ? Lab note: record the label of whichever item you select.
Response: 1

A. CCCCC(=O)NC1(C(=O)NC(Cc2ccccc2)C(=O)N[C@@H](CCCN=C(N)N)C(=O)N[C@@H](Cc2c[nH]c3ccccc23)C(=O)NCC(N)=O)CCc2cc(Br)ccc2C1 (single isomer, unassigned; form 2)
B. CCCCC(=O)NC1(C(=O)NC(Cc2ccccc2)C(=O)N[C@@H](CCCNC(=N)N)C(=O)N[C@@H](Cc2c[nH]c3ccccc23)C(=O)NCC(N)=O)CCc2c(cccc2C(C)C)C1 (single isomer, unassigned)
Request: Kindly identify the item with the lower pEC50 figure among these two: A and B Give the label under which the chosen entry appears.
Response: A
